Tested on: immature rabbits
Protocol Description: McPhail (Clauberg) rabbit assay of progestational activity
Assay type: in vivo
Recorded Conditions: Oryctolagus cuniculus; estradiol-primed immature rabbits; glandular changes of the uterus; read-out: potency (MAD in mg/kg), minimum active dose
Observable: minimal effective dose (mg/kg)
Answers are plain numbers, in mg/kg.

// solved cases for minimal effective dose follow
Lab note: CC1=CC(C)(C)Nc2ccc3c(c21)C(=Cc1ccccc1C)Oc1ccc(F)cc1-3 [Formula II X=9-F 2-Me-Ph, reference compound] gave minimal effective dose of 1.2

Measured minimal effective dose, CC1=CC(C)(C)Nc2ccc3c(c21)C(c1cccc(Cl)c1)Oc1c(F)cc(F)cc1-3 (racemic) : 0.75

More entries:
Lab book: minimal effective dose of CC1=CC(C)(C)Nc2ccc3c(c21)C(c1cc2ccccc2s1)Oc1c(F)cc(F)cc1-3 (single isomer, unassigned; (-)) noted as 0.25
